Please go through the items and note down their remaining at 0.5 h.
experiment: Stability of the compound in mouse liver microsomes assessed as parent compound remaining after 30 mins relative to control; assay type: ADME, Microsome; settings: read-out: Stability

Ask: Would you kindly share the measured remaining at 0.5 h for COc1ccccc1-c1nnc(Nc2ccc(CC(N)=O)cc2)c2c1CCC2 ?
Reply: 90%

Ask: Thanks! And COCCOCCOc1ccccc1-c1nnc(Nc2ccc(CC(N)=O)cc2F)c2ccsc12 ?
Reply: 82%

Ask: Thanks! And NC(=O)Cc1ccc(Nc2nnc(-c3ccccc3OCc3cscn3)c3sccc23)c(F)c1 ?
Reply: 79%

Ask: Thanks! And COCCOc1ccccc1-c1nnc(Nc2ccc(CC(N)=O)cc2F)c2ccsc12 ?
Reply: 66%

Ask: Thanks! And NC(=O)Cc1ccc(Nc2nnc(-c3ccccc3OCc3ccccn3)c3sccc23)c(F)c1 ?
Reply: 19%

Ask: Thanks! And CC(C)(C)NC(=O)NCCOCCOc1ccccc1-c1nnc(Nc2ccc(CC(N)=O)cc2F)c2ccsc12 ?
Reply: 2%

Ask: Thanks! And COc1ccccc1-c1nnc(Nc2ccc(CC(N)=O)cc2F)c2ccsc12 ?
Reply: 92%

Ask: Thanks! And NC(=O)Cc1ccc(Nc2nnc(-c3ccccc3OCC3COCCO3)c3sccc23)c(F)c1 (centres undefined) ?
Reply: > 100%

Ask: Thanks! And CC(C)(C)OC(=O)NCCOCCOc1ccccc1-c1nnc(Nc2ccc(CC(N)=O)cc2F)c2ccsc12 ?
Reply: 15%

====

Please go through the items and note down their fold change (FC).
Biological target: Solute carrier family 2, facilitated glucose transporter member 4 (Rattus norvegicus) (UniProt P19357)
Sequence (whole entry): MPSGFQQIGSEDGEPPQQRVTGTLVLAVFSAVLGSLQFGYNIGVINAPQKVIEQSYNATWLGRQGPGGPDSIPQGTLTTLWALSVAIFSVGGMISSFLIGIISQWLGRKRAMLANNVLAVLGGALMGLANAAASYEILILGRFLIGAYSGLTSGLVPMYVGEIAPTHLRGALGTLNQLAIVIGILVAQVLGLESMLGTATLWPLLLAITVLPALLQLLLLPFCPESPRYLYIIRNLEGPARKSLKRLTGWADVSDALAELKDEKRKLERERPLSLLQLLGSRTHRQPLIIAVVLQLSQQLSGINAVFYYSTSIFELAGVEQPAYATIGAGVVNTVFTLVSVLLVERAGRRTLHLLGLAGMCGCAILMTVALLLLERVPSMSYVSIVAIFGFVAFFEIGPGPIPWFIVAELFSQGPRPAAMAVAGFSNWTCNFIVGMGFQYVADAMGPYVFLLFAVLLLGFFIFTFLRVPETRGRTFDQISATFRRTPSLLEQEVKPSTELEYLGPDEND
Assay: Induction of GLUT4 translocation in rat L6-GLUT4myc differentiated myotube cells at 3 uM after 20 mins by chemiluminescent method relative to 30 uM 2-(4-(4-(2-methoxyphenyl)-6,7-dihydro-5H-cyclopenta[d]pyridazin-1-ylamino)phenyl)acetamide

Ask: Would you kindly share the measured fold change (FC) for COc1ccccc1-c1nnc(Nc2ccc(CC(N)=O)c(C)c2)c2c1CCC2 ?
Reply: 0.36

Ask: Thanks! And COc1ccccc1-c1nnc(Nc2ccc(CC(N)=O)cc2C(F)(F)F)c2c1CCC2 ?
Reply: 0.12

Ask: Thanks! And CNC(=O)Cc1ccc(Nc2nnc(-c3ccccc3OC)c3c2CCC3)cc1 ?
Reply: 0.08

Ask: Thanks! And COc1ccccc1-c1nnc(Nc2ccc(CC(N)=O)cc2Cl)c2c1CCC2 ?
Reply: 0.45

Ask: Thanks! And COc1ccccc1-c1nnc(Nc2ccc(C(N)=O)cc2)c2c1CCC2 ?
Reply: 0.1

====

assay: AUC (0 to 4 hrs) in db/db mouse plasma at 10 mg/kg, po measured up to 4 hrs; format: ADME, organism-based; set-up: dose 10 mg/kg, time < 4 hr, route oral
readout: AUC(0-t) at 4 h (µM·h)
Give the value, in units of µM·h, as a plain number.

Ask: Would you kindly share the measured AUC(0-t) at 4 h for COCCOc1ccccc1-c1nnc(Nc2ccc(CC(N)=O)cc2F)c2ccsc12 ?
Reply: 10.6

====

target: Solute carrier family 2, facilitated glucose transporter member 4 (Rattus norvegicus) (UniProt P19357); test: Induction of GLUT4 translocation in rat L6-GLUT4myc differentiated myotube cells at 3 uM after 20 mins by chemiluminescent method relative to 30 uM 2-(4-(4-(2-methoxyphenyl)-6,7-dihydro-5H-cyclopenta[d]pyridazin-1-ylamino)phenyl)acetamide
Please go through the items and note down their fold change (FC).

Ask: Would you kindly share the measured fold change (FC) for COc1ccccc1-c1nnc(Nc2ccc(CC(=O)N(C)C)cc2)c2c1CCC2 ?
Reply: 0.09

Ask: Thanks! And COc1ccccc1-c1nnc(Nc2ccc(C(C)(C)C(N)=O)cc2)c2c1CCC2 ?
Reply: 0.3

Ask: Thanks! And COc1ccccc1-c1nnc(Nc2ccc(CC(N)=O)c(F)c2)c2c1CCC2 ?
Reply: 0.56

Ask: Thanks! And COc1ccccc1-c1nnc(Nc2ccc(C3(C(N)=O)CC3)cc2)c2c1CCC2 ?
Reply: 0.37

Ask: Thanks! And COc1ccccc1-c1nnc(Nc2ccc(CS(N)(=O)=O)cc2)c2c1CCC2 ?
Reply: 0.09

Ask: Thanks! And COc1cc(CC(N)=O)ccc1Nc1nnc(-c2ccccc2OC)c2c1CCC2 ?
Reply: 0.13

Ask: Thanks! And COc1ccccc1-c1nnc(Nc2ccc(CC(N)=O)cc2O)c2c1CCC2 ?
Reply: 0.09

Ask: Thanks! And COc1ccccc1-c1nnc(Nc2ccc(CC(N)=O)cc2F)c2c1CCC2 ?
Reply: 0.85

Ask: Thanks! And COc1ccccc1-c1nnc(Nc2ccc(CC(N)=O)cc2C)c2c1CCC2 ?
Reply: 0.52

====

target: Solute carrier family 2, facilitated glucose transporter member 4 (Rattus norvegicus); assay: Induction of GLUT4 translocation in rat L6-GLUT4myc differentiated myotube cells at 3 uM after 20 mins by chemiluminescent method relative to 30 uM 2-(4-(4-(2-methoxyphenyl)-6,7-dihydro-5H-cyclopenta[d]pyridazin-1-ylamino)phenyl)acetamide
Please go through the items and note down their fold change (FC).

Ask: Would you kindly share the measured fold change (FC) for COc1ccccc1-c1nnc(Nc2ccc(CC(N)=O)cc2)c2ccoc12 ?
Reply: 0.33

Ask: Thanks! And COc1ccccc1-c1nnc(Nc2ccc(CC(N)=O)cc2)c2occc12 ?
Reply: 0.46

Ask: Thanks! And COc1ccccc1-c1nnc(Nc2ccc(CC(N)=O)cc2)c2sccc12 ?
Reply: 0.67

Ask: Thanks! And COc1ccccc1-c1nnc(Nc2ccc(CC(N)=O)cc2)c2ccsc12 ?
Reply: 0.97

Ask: Thanks! And COc1ccccc1-c1nnc(Nc2cccc(CC(N)=O)c2)c2c1CCC2 ?
Reply: 0.04

====

assay: AUC (0 to 4 hrs) in db/db mouse plasma at 3 mg/kg, po measured up to 4 hrs; format: ADME, organism-based; design: dose 3 mg/kg, time < 4 hr, route oral
readout: AUC(0-t) at 4 h (µM·h)
Give the value, in units of µM·h, as a plain number.

Ask: Would you kindly share the measured AUC(0-t) at 4 h for COCCOc1ccccc1-c1nnc(Nc2ccc(CC(N)=O)cc2F)c2ccsc12 ?
Reply: 9.01
